Reported pKi against Sodium-dependent noradrenaline transporter (Homo sapiens, UniProt P23975), gathered from multiple publications, appears below.
Sequence (P23975 whole entry): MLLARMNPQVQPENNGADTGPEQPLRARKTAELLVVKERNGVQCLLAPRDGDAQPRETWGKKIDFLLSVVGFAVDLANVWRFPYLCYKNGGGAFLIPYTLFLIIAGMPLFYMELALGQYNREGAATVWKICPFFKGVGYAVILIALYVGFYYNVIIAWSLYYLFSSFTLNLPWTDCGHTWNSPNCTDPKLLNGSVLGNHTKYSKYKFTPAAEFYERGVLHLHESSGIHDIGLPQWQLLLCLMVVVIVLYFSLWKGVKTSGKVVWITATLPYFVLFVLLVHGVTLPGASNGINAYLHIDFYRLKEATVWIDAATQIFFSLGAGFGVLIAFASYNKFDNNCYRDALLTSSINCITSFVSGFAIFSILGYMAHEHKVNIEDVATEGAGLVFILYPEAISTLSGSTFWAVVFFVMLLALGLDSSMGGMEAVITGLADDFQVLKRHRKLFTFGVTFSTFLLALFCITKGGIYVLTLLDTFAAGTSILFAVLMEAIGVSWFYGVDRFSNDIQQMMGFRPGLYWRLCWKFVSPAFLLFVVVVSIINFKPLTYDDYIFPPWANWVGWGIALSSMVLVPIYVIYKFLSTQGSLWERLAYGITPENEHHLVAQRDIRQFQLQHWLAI
By convention, pKi is the negative base-10 log of a molar concentration.

Use these answered entries as a reference point.
CCCN(Cc1ccccc1C(F)(F)F)C1CCNCC1 | 8.19
Cc1cc(F)ccc1O[C@H](c1ccccc1)[C@H]1CNCCO1 | 6.07
OC1([C@H](CN2CCNCC2)c2cccc(OC(F)(F)F)c2)CCCCC1 | 6.93

Kindly consider the entry below.
Recorded pKi for c1cc2c(cc1CN[C@H]1C3C4CC5C6C4CC3C6C51)OCO2 (stereo not given in full) , please?
5.13

* * *

Reported Ki against Sodium-dependent noradrenaline transporter (Homo sapiens), gathered from multiple publications, appears below.
Number only, in nM; omit the unit.

CC(C)CN(Cc1cccc(C(F)(F)F)c1Cl)C1CCNCC1 | 420
Cc1ccc(Sc2cc(F)ccc2CN(C)C)c(N)c1 | 1200
Fc1cccc(Oc2cccc(Cl)c2Cl)c1OC1CNC1 | 374
CC(C)(C#N)CCN(Cc1ccc(F)cc1C(F)(F)F)C1CCNCC1 | 6.2
O=C(Cc1c[nH]c2ccccc12)C(O)Cc1ccc(O)cc1 (configuration not stated) | 867
Fc1ccccc1Oc1ccccc1OC1CNC1 | 528

Returns the measured Ki for the input compound. Input: CC(C)(C)OC(=O)N1CCCC1CNC1CCC(c2cc(F)ccc2F)(S(=O)(=O)c2ccc(Cl)cc2)CC1 (configuration not stated)
2430

And for CCc1ccccc1Oc1cc(C)ncc1CNC ?
366

And O=C1C(Cc2ccccc2N2CCNCC2)SCCN1c1ccc(Cl)c(Cl)c1 (configuration not stated) ?
5

// query: c1ccc(Oc2ccccc2OC2CNC2)cc1
1640

Entry to check: Cc1cc(Oc2ccccc2C)c(CN(C)C)cn1
194

Next compound up: CN1CCN(CC(c2cccc(Cl)c2)C2(O)CCCCC2)CC1 (configuration not stated)
46

Quick one: COc1ccccc1Oc1cc(C)ncc1CN(C)C
296

Clc1ccccc1Oc1ncccc1C1CCNCC1 , same question.
74

* * *

# Ki against Sodium-dependent noradrenaline transporter (Homo sapiens, UniProt P23975), merged from multiple literature sources

Study these solved cases before continuing.
Cc1ccc(Sc2ccccc2CN(C)C)c(NCc2ccc([N+](=O)[O-])cc2)c1 | > 1.9 µM
COc1ccccc1-c1ccc(C(=O)N2CCN(C(=O)c3ccc4cc[nH]c4c3)[C@@H](C)C2)cc1 | > 10 µM

Field: next compound
Can you look up the measured Ki of CNc1ncc2c(n1)N(C)CCN(c1cccc(-c3nnc(C)o3)c1)C2=O for me?
> 10 µM

* * *

Before we begin, note that these pKi values for Sodium-dependent noradrenaline transporter (Homo sapiens) originate from several publications.
pKi: −log10 of the molar value.
Label True when pKi >= 7; otherwise False.

Solved cases below.
CCNc1ncc2c(n1)N(C)CCN(c1ccccc1COC(CCNC)c1ccccc1)C2=O (stereo not drawn) | False
NCC1CCC(c2ccc(Br)cc2)O1 (stereo not drawn) | False
C[C@H]1CN(C(=O)c2ccc(-c3ccc(OC(F)(F)F)cc3)cc2)CCN1C(=O)c1ccc2cc[nH]c2c1 | False
CCOC(=O)C1CN(CCn2c(=O)[nH]c3ccccc3c2=O)CCC1c1ccc(F)cc1 (single isomer, unassigned; (+)) | False
CN(C)Cc1cc(OCCO)ccc1Sc1ccccc1N | True

Say whether CC(C)CN(C(=O)c1ccc(F)cc1Cl)[C@H]1CCNC1 shows pKi of 7 or more.
False

Follow-up entry: CC(C)CN(Cc1cc(C(F)(F)F)ccc1Cl)C1CCNCC1
False

Then FCCc1ccccc1O[C@@H](c1ccccc1)[C@@H]1CNCCO1 ?
True

What about this compound? Fc1cccc(Oc2ncccc2C2CCNCC2)c1F
False

Now try CNCc1cnc(C)cc1Oc1ccccc1SC .
False

// repeat for CCCCN1CCC(COC(=O)c2ccc(N)c(OC)c2)CC1 and report
False

How about this compound: CNc1cc(-c2csc(N(C)C(=O)c3ccc(F)cc3)n2)ncn1
False

Note, next up: CC(C)N(Cc1ccccc1C(F)(F)F)C1CCNCC1
True
